test system: human gastric adenocarcinoma cells AGS; test: MTT in vitro cell proliferation inhibition experiment, AGS; type: cell-based; conditions: Homo sapiens, MTT method, 48 h contact between compound and cell, read-out: Antiproliferative activity (IC50, μM) AGS
readout.name: IC50 (µM)
# value in µM; strip the unit string

Kindly note: human gastric adenocarcinoma cells AGS, CC(C)CC1NC2(C(=O)c3ccccc3C2=O)C(C(=O)c2nc3ccccc3[nH]2)C1C1CCCCC1 (stereo not shown) , IC50 value reported: 69

Kindly note: human gastric adenocarcinoma cells AGS, Cc1ccc(C2C(CC(C)C)NC3(C(=O)c4ccccc4C3=O)C2C(=O)c2nc3ccccc3[nH]2)cc1 (stereo not shown) , IC50 value reported: 42.7

Kindly note: human gastric adenocarcinoma cells AGS, O=C(c1nc2ccccc2[nH]1)C1C(c2ccc(Br)cc2)C(c2c[nH]c3ccccc23)NC12C(=O)c1ccccc1C2=O (stereo not shown) , IC50 value reported: 44.2

Kindly note: human gastric adenocarcinoma cells AGS, CCOc1ccc(C2C3CCCN3C3(C(=O)c4ccccc4C3=O)C2C(=O)c2nc3ccccc3[nH]2)cc1 (stereo not shown) , IC50 value reported: 7.73

Kindly note: human gastric adenocarcinoma cells AGS, CSCCC1NC2(C(=O)c3ccccc3C2=O)C(C(=O)c2nc3ccccc3[nH]2)C1c1ccc(Cl)cc1 (stereo not shown) , IC50 value reported: 45.8

Kindly note: human gastric adenocarcinoma cells AGS, CCOc1ccc(C2C(C(C)CC)NC3(C(=O)c4ccccc4C3=O)C2C(=O)c2nc3ccccc3[nH]2)cc1 (stereo not shown) , IC50 value reported: 45.8

Kindly note: human gastric adenocarcinoma cells AGS, CC(C)C1NC2(C(=O)c3ccccc3C2=O)C(C(=O)c2nc3ccccc3[nH]2)C1C1CCCCC1 (stereo not shown) , IC50 value reported: 12.4

Kindly note: human gastric adenocarcinoma cells AGS, O=C(c1nc2ccccc2[nH]1)C1C(c2ccc(Cl)cc2)C2CCCN2C12C(=O)c1ccccc1C2=O (stereo not shown) , IC50 value reported: 30

Kindly note: human gastric adenocarcinoma cells AGS, O=C(c1nc2ccccc2[nH]1)C1C(C2CCCCC2)C(c2c[nH]c3ccccc23)NC12C(=O)c1ccccc1C2=O (stereo not shown) , IC50 value reported: 82.3
